# experimental.system: Growth hormone secretagogue receptor type 1 (Homo sapiens, UniProt Q92847, F119S)
# Sequence (Q92847 whole entry F119S): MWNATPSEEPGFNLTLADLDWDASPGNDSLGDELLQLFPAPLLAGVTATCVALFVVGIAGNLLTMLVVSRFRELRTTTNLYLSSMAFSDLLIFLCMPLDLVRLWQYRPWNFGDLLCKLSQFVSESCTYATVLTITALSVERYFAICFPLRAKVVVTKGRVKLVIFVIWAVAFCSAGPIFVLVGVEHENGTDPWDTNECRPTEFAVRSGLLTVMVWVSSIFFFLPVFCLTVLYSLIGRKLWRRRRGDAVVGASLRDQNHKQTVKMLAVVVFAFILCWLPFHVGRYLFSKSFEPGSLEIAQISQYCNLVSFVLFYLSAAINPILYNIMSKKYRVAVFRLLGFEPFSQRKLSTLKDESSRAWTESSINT
# test.description: Agonist activity at FLAG-tagged human ghrelin receptor Phe119:Ser mutant expressed in COS 7 cells using [2-3H]myo-inositol by inositol triphosphate turnover assay
recorded.metric: pEC50
The meaning of pEC50 here: minus log10 of the concentration in molar units.

Query: Report pEC50, nothing else, for this compound: CC(C)C[C@H](NC(=O)[C@H](CC(C)C)NC(=O)[C@@H](Cc1ccc2ccccc2c1)NC(=O)[C@H](Cc1ccccc1)NC(=O)[C@@H](Cc1c[nH]c2ccccc12)NC(=O)[C@@H](N)CCCCN)C(N)=O
Response: 7.87

###

# experimental.system: Growth hormone secretagogue receptor type 1 (Homo sapiens, UniProt Q92847)
# Sequence (Q92847 whole entry): as the sequence (Q92847 whole entry F119S) above, with S119F counted along it
# test.description: Ratio of EC50 of ghrelin to EC50 of compound at human ghrelin receptor expressed in COS 7 cells using [2-3H]myo-inositol by inositol triphosphate turnover assay
# Assay type: functional, cell-based
recorded.metric: Ratio EC50

Illustrative cases are given below, each with its answer.
chem.smiles	Ratio EC50
CC(C)C[C@H](NC(=O)[C@H](CC(C)C)NC(=O)[C@@H](Cc1ccc(C(=O)c2ccccc2)cc1)NC(=O)[C@H](Cc1ccccc1)NC(=O)[C@@H](Cc1c[nH]c2ccccc12)NC(=O)[C@@H](N)CCCCN)C(N)=O	> 700
CC(C)C[C@H](NC(=O)[C@H](CC(C)C)NC(=O)[C@@H](Cc1cccc2ccccc12)NC(=O)[C@H](Cc1ccccc1)NC(=O)[C@@H](Cc1c[nH]c2ccccc12)NC(=O)[C@@H](N)CCCCN)C(N)=O	12.8
CC(C)C[C@H](NC(=O)[C@H](CC(C)C)NC(=O)[C@H](NC(=O)[C@H](Cc1ccccc1)NC(=O)[C@@H](Cc1c[nH]c2ccccc12)NC(=O)[C@@H](N)CCCCN)C(c1ccccc1)c1ccccc1)C(N)=O	> 700
CC(C)C[C@H](NC(=O)[C@H](CC(C)C)NC(=O)[C@@H](Cc1ccc2ccccc2c1)NC(=O)[C@H](Cc1ccccc1)NC(=O)[C@@H](Cc1c[nH]c2ccccc12)NC(=O)[C@@H](N)CCCCN)C(N)=O	9

Query: Report Ratio EC50, nothing else, for this compound: CC(C)C[C@H](NC(=O)[C@H](CC(C)C)NC(=O)[C@@H](Cc1ccc(-c2ccccc2)cc1)NC(=O)[C@H](Cc1ccccc1)NC(=O)[C@@H](Cc1c[nH]c2ccccc12)NC(=O)[C@@H](N)CCCCN)C(N)=O
Response: > 700

###

# experimental.system: Growth hormone secretagogue receptor type 1 (Homo sapiens, UniProt Q92847, S123A)
# Sequence (Q92847 whole entry S123A): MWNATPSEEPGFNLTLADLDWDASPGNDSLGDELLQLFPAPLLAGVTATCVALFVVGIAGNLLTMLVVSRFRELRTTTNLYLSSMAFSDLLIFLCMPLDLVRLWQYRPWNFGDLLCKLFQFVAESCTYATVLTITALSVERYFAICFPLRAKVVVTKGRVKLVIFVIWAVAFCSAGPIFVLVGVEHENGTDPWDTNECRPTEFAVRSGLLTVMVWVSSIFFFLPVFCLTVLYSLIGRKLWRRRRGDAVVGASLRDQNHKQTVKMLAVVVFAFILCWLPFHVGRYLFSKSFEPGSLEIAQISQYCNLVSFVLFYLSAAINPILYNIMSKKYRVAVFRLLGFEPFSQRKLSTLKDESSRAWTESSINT
# test.description: Agonist activity at FLAG-tagged human ghrelin receptor Ser123:Ala mutant expressed in COS 7 cells using [2-3H]myo-inositol by inositol triphosphate turnover assay
recorded.metric: EC50 (nM)
State the answer as a number, implicitly in nM.

Query: Report EC50, nothing else, for this compound: CC(C)C[C@H](NC(=O)[C@H](CC(C)C)NC(=O)[C@@H](Cc1ccc2ccccc2c1)NC(=O)[C@H](Cc1ccccc1)NC(=O)[C@@H](Cc1c[nH]c2ccccc12)NC(=O)[C@@H](N)CCCCN)C(N)=O
Response: 6.7
